Data origin: ChEMBL document CHEMBL1155080

# Experimental target: UniProt:P18825
# Sequence (P18825 whole entry): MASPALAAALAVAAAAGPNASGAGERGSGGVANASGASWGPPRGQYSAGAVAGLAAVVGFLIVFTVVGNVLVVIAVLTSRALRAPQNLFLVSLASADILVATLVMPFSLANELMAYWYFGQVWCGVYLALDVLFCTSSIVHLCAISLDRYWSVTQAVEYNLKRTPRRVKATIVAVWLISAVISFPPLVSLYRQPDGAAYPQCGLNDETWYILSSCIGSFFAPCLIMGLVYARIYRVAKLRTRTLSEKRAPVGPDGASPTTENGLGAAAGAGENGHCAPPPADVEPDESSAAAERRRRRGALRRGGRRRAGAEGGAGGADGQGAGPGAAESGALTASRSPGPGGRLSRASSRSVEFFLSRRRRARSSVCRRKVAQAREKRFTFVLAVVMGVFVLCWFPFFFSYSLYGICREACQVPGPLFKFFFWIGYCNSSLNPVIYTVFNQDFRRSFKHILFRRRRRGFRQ
# Assay info: Agonist activity at human recombinant adrenergic Alpha-2C receptor expressed in CHO cells assessed as stimulation of extracellular acidification
Label condition met when EC50 is strictly below 100 nM; at or above that, label condition not met.

CC(Oc1ccccc1C1CCCC1)C1=NCCN1 (stereo not given)    condition met
CCO/N=C/c1ccccc1OC(C)C1=NCCN1 (stereo not given)    condition not met
c1ccc(-c2cccc3c2OCC(C2=NCCN2)O3)cc1 (stereo not given)    condition not met
c1ccc(-c2ccccc2OC(C2=NCCN2)c2ccccc2)cc1 (stereo not given)    condition not met
CO/N=C/c1ccccc1OC(C)C1=NCCN1 (stereo not given)    condition not met

Confirm or reject: EC50 of c1ccc(-c2cccc3c2OC(C2=NCCN2)CO3)cc1 (stereo not given) lies strictly below 100 nM
condition not met

What would you report for C=CCc1ccccc1OC(C)C1=NCCN1 (stereo not given) [ALLYPHENYLINE] ?
condition met

What would you report for CC(Oc1ccccc1C1CCCCC1)C1=NCCN1 (stereo not given) ?
condition met

What would you report for CC(Oc1ccccc1/C=N/OCc1ccccc1)C1=NCCN1 (stereo not given) ?
condition not met

What would you report for CC(Oc1ccccc1/C=N/O)C1=NCCN1 (stereo not given) ?
condition not met
